Biological target: HIV-1 Env of pseudovirus 0260.v5.c36 (HIV-1)
Assay: cell-based or functional assay
Experimental Readout: neutralization IC50 (µg/mL)
Respond numerically; units are µg/mL and should not be typed.

The measured neutralization IC50 associated with MS-91 (antibody, V domains shown) VH: QVQLVQSGPEVRKPGTSVKVSCKASGYTLKTYDLHWVRSVPGQGLQWMGWISHEGDKKVIVERFKAKVTIDWDRSTNTAYLQLSGLTSGDTAVYYCAKGSKHRLRDYALYDDDGALNWAVDVDYLSNLEFWGQGTAVTVSS VL: DFVLTQSPLSLSVTPGESASISCKSSHSLIHGDRNNYLAWYVQKPGRSPQLLIYLASSRASGVPDRFSGSGSDTDFTLKISRVETEDVGTYYCMQGRESPWTFGQGTKVDIKR reads 0.046

Values compiled from patent US20220025021A1.
